# Tested on: 883617-216-R-J1-PDC complex spheroids, growth, % test/control;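 further: exposure lasted 7 days after dosing on day 3 of spheroid growth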
# MEASUREMENT_NOTES: Anticancer human tumor 883617-216-R-J1-PDC patient-derived bladder carcinoma cell line growth inhibition [AhR]
# STUDY_CONDITIONS: second compound 0.316 µM; first compound 10 µM; active compounds read low
Sorting guide: entries reporting viability, T/C beneath 90% go in the met pile, the rest go in the not met pile.

[ask] Quick check: does Nc1ccn(C2OC(CO)C(O)C2(F)F)c(=O)n1 (stereo not given) + CC(CO)NC(=O)c1cc(-c2ccc(Cl)cc2)nn(-c2cnn(C)c2)c1=O have viability, T/C under 90%?
[reply] met

[ask] Quick check: does O=C(c1cc(Cc2n[nH]c(=O)c3ccccc23)ccc1F)N1CCN(C(=O)C2CC2)CC1 + Cc1cncc(-c2nc(NCCc3c[nH]c4ccccc34)c3ncn(C(C)C)c3n2)c1 have viability, T/C under 90%?
[reply] met

[ask] Quick check: does COc1cc(Nc2ncc3c(n2)-c2ccc(Cl)cc2C(c2c(F)cccc2OC)=NC3)ccc1C(=O)O + CC(CO)NC(=O)c1cc(-c2ccc(Cl)cc2)nn(-c2cnn(C)c2)c1=O have viability, T/C under 90%?
[reply] not met

[ask] Quick check: does O=C(c1cc(Cc2n[nH]c(=O)c3ccccc23)ccc1F)N1CCN(C(=O)C2CC2)CC1 + Cc1ccccc1N=Nc1ccc(NC(=O)c2ccnn2C)c(C)c1 have viability, T/C under 90%?
[reply] met

[ask] Quick check: does CC1(C)CCC(CN2CCN(c3ccc(C(=O)NS(=O)(=O)c4ccc(NCC5CCOCC5)c([N+](=O)[O-])c4)c(Oc4cnc5[nH]ccc5c4)c3)CC2)=C(c2ccc(Cl)cc2)C1 + Cc1ccccc1N=Nc1ccc(NC(=O)c2ccnn2C)c(C)c1 have viability, T/C under 90%?
[reply] met
